Target: Fatty-acid amide hydrolase 1 (Homo sapiens) (UniProt O00519)
Sequence (O00519 whole entry): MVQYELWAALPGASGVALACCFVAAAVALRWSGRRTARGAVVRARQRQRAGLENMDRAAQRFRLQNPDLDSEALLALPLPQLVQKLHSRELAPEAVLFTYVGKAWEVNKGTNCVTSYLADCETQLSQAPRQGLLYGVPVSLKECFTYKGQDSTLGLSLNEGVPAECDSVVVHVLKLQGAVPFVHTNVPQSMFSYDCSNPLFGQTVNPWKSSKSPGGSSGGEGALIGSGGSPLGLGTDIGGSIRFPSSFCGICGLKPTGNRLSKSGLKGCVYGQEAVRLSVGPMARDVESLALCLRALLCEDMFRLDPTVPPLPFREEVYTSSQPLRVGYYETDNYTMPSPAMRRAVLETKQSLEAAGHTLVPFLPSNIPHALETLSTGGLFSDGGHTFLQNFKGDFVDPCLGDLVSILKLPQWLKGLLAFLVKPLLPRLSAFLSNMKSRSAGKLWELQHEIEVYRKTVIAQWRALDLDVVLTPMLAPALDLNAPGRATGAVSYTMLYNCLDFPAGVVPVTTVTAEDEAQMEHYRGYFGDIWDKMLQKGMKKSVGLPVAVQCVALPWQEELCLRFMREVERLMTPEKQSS
Assay: Ratio of Kinact to Ki for human FAAH activity
Reported metric: Ratio (M⁻¹ s⁻¹)

[[record]]
compound = "Cn1nnnc1NC(=O)N1CCC2(CC1)CC(c1cccc(C(F)(F)F)c1)CO2 (stereo in doubt; form 2)"
reported_metric = "Ratio"
op = "="
value_reported = 3760

[[record]]
compound = "COc1ccccc1C1CC2(CCN(C(=O)Nc3onc(C)c3C)CC2)C1"
reported_metric = "Ratio"
op = "="
value_reported = 2640

[[record]]
compound = "Cc1noc(NC(=O)N2CCC3(CC2)CC(c2ccccc2OC(F)(F)F)C3)c1C"
reported_metric = "Ratio"
op = "="
value_reported = 839

[[record]]
compound = "Cc1noc(NC(=O)N2CCC3(CC2)CC(c2cccc(OC(F)(F)F)c2)C3)c1C"
reported_metric = "Ratio"
op = "="
value_reported = 2830

[[record]]
compound = "Cc1noc(NC(=O)N2CCC3(CC2)CC(c2cccc(OC(F)(F)F)c2)CO3)c1C (racemic)"
reported_metric = "Ratio"
op = "="
value_reported = 1800

[[record]]
compound = "Cc1noc(NC(=O)N2CCC3(CC2)CC(c2ccccc2)CO3)c1C (racemic)"
reported_metric = "Ratio"
op = "="
value_reported = 461

[[record]]
compound = "Cc1noc(NC(=O)N2CCC3(CC2)CC(c2ccc(Cl)cc2)C3)c1C"
reported_metric = "Ratio"
op = "="
value_reported = 2030

[[record]]
compound = "Cc1cccc(C2CC3(CCN(C(=O)Nc4onc(C)c4C)CC3)C2)c1"
reported_metric = "Ratio"
op = "="
value_reported = 2870

[[record]]
compound = "Cn1nnnc1NC(=O)N1CCC2(CC1)CC(c1cccc(C(F)(F)F)c1)CO2 (stereo in doubt; form 1)"
reported_metric = "Ratio"
op = "="
value_reported = 4600

[[record]]
compound = "Cc1noc(NC(=O)N2CCC3(CC2)CC(c2ccccc2C(F)(F)F)C3)c1C"
reported_metric = "Ratio"
op = "="
value_reported = 1140

[[record]]
compound = "CCc1noc(NC(=O)N2CCC3(CC2)CC(c2cccc(OC(F)(F)F)c2)C3)c1C"
reported_metric = "Ratio"
op = "="
value_reported = 1650

[[record]]
compound = "Cn1ncnc1NC(=O)N1CCC2(CC1)CC(c1cccc(OC(F)(F)F)c1)C2"
reported_metric = "Ratio"
op = "<"
value_reported = 10

[[record]]
compound = "Cn1nnnc1NC(=O)N1CCC2(CC1)CC(c1cccc(Cl)c1)CO2 (stereo not drawn)"
reported_metric = "Ratio"
op = "="
value_reported = 5600

[[record]]
compound = "Cc1noc(NC(=O)N2CCC3(CC2)CC(c2ccc(F)c(Cl)c2)CO3)c1C (racemic)"
reported_metric = "Ratio"
op = "="
value_reported = 1580

[[record]]
compound = "Cc1noc(NC(=O)N2CCC3(CC2)CC(c2ccc(C(F)(F)F)cc2)CO3)c1C (racemic)"
reported_metric = "Ratio"
op = "="
value_reported = 481

[[record]]
compound = "Cc1noc(NC(=O)N2CCC3(CC2)CC(c2ccc(Cl)c(Cl)c2)C3)c1C"
reported_metric = "Ratio"
op = "="
value_reported = 4550

[[record]]
compound = "Cc1noc(NC(=O)N2CCC3(CC2)CC(c2cccc(C#N)c2)CO3)c1C (racemic)"
reported_metric = "Ratio"
op = "="
value_reported = 243

[[record]]
compound = "Cn1nnnc1NC(=O)N1CCC2(CC1)CC(c1cccc(OC(F)(F)F)c1)C2"
reported_metric = "Ratio"
op = "="
value_reported = 13200


The origin of these recorded values is ChEMBL document CHEMBL1914324.
